Experiment: Hemolytic activity in sheep RBC incubated for 1 hr by absorbance based analysis
Format: toxicity, cell-based, Ovis aries, Erythrocyte
Settings: sheep red blood cells
PROPERTY LABEL: HC50 at 1 h (µg/mL)
Reply with just the number (in µg/mL).

Answered examples (3):
[[record]]
input_smiles = "Br.C=CCc1cccc(Oc2ccc(C(=O)CC)cc2)c1OCCCCSC(=N)N"
endpoint_unit = "µg/mL"
result = 931

[[record]]
input_smiles = "Br.C=CCc1cccc(Oc2ccc(C(=O)CC)cc2)c1OCCCSC(=N)N"
endpoint_unit = "µg/mL"
result = 894

[[record]]
input_smiles = "C=CCc1cccc(Oc2ccc(C(=O)CC)cc2)c1OCCC[N+](C)(C)CC(=O)NCCCC.[Br-]"
endpoint_unit = "µg/mL"
result = 507


Query :: Give the reported value of HC50 at 1 h for this record: `C=CCc1cccc(Oc2ccc(C(=O)CC)cc2)c1OCC[N+](C)(C)CC(=O)NCCCC.[Br-]`
Result :: 1150

----------
Assay: Hemolytic activity in sheep RBC incubated for 1 hr by absorbance based analysis
Type: toxicity, cell-based, Ovis aries, Erythrocyte
Conditions: sheep red blood cells
Quick list: HC50 at 1 h per entry.
Kindly provide the numeric value in µg/mL only, without the unit symbol.

Query :: Please report HC50 at 1 h for the following compound: `C=CCc1cccc(Oc2ccc(C(=O)CC)cc2)c1OCCC[N+](C)(C)CC(=O)NCC.[Br-]`
Result :: 501

Query :: // Input: `C=CCc1cccc(Oc2ccc(C(=O)CC)cc2)c1OCCCC[N+](C)(C)CC(=O)N(CCC)CCC.[Br-]` . Output its HC50 at 1 h only.
Result :: 933

Query :: // fetch HC50 at 1 h given entry `C=CCc1cccc(Oc2ccc(C(=O)CC)cc2)c1OCCCC[N+](C)(C)CC(=O)NCCCCCC.[Br-]`
Result :: 642

Query :: Please list HC50 at 1 h recorded for the compound `C=CCc1cccc(Oc2ccc(C(=O)CC)cc2)c1OCCC[N+](C)(C)CC(=O)N(CC)CC.[Br-]`
Result :: 733

----------
Test: Hemolytic activity in sheep RBC incubated for 1 hr by absorbance based analysis
Type: toxicity, cell-based, Ovis aries, Erythrocyte
Conditions: sheep red blood cells
Measured HC50 at 1 h, listed per entry for reference.
Give the quantity in µg/mL, number only.

Please review the following examples before continuing.
[[record]]
input_smiles = "C=CCc1cccc(Oc2ccc(C(=O)CC)cc2)c1OCC[N+](C)(C)CC(=O)NCCCCC.[Br-]"
result = 1550

[[record]]
input_smiles = "C=CCc1cccc(Oc2ccc(C(=O)CC)cc2)c1OCCCC[N+](C)(C)CC(=O)NCCC.[Br-]"
result = 823

[[record]]
input_smiles = "C=CCc1cccc(Oc2ccc(C(=O)CC)cc2)c1OCCC[N+](C)(C)CC(=O)NCCCCC.[Br-]"
result = 690

[[record]]
input_smiles = "C=CCc1cccc(Oc2ccc(C(=O)CC)cc2)c1OCCC[N+](C)(C)CC(=O)N1CCOCC1.[Br-]"
result = 674

[[record]]
input_smiles = "C=CCc1cccc(Oc2ccc(C(=O)CC)cc2)c1OCCC[N+](C)(C)CC(=O)N(CCC)CCC.[Br-]"
result = 854

[[record]]
input_smiles = "C=CCc1cccc(Oc2ccc(C(=O)CC)cc2)c1OCCCC[N+](C)(C)CC(=O)N1CCCC1.[Br-]"
result = 579

[[record]]
input_smiles = "C=CCc1cccc(Oc2ccc(C(=O)CC)cc2)c1OCC[N+](C)(C)CC(=O)NCC.[Br-]"
result = 509


Kindly consider the entry below.
Query :: Please look at this compound and report its HC50 at 1 h: `C=CCc1cccc(Oc2ccc(C(=O)CC)cc2)c1OCCCC[N+](C)(C)CC(=O)NCCCC.[Br-]`
Result :: 1110

----------
Test system: Salmonella enterica
Assay: Antibacterial activity against Salmonella enterica H9812 assessed as inhibition of bacterial growth incubated for 16 to 20 hrs by CLSI based microdilution method
Format: functional
Conditions: time 16-20 hrs
PROPERTY LABEL: MIC (mg/L)
Response body: numeric value in mg/L, unit text excluded.

Please review the following examples before continuing.
[[record]]
input_smiles = "C=CCc1cccc(Oc2ccc(C(=O)CC)cc2)c1OCCCC[N+](C)(C)CC(=O)N(CCC)CCC.[Br-]"
property_label = "MIC"
result = 128

[[record]]
input_smiles = "C=CCc1cccc(Oc2ccc(C(=O)CC)cc2)c1OCC[N+](C)(C)CC(=O)N1CCOCC1.[Br-]"
property_label = "MIC"
result = 64

[[record]]
input_smiles = "C=CCc1cccc(Oc2ccc(C(=O)CC)cc2)c1OCCC[N+](C)(C)CC(=O)NCCCCCC.[Br-]"
property_label = "MIC"
result = 32

[[record]]
input_smiles = "C=CCc1cccc(Oc2ccc(C(=O)CC)cc2)c1OCCCC[N+](C)(C)CC(=O)NCCCCC.[Br-]"
property_label = "MIC"
result = 128

[[record]]
input_smiles = "C=CCc1cccc(Oc2ccc(C(=O)CC)cc2)c1OCC[N+](C)(C)CC(=O)NCC.[Br-]"
property_label = "MIC"
result = 128


Query :: Using the record for `C=CCc1cccc(Oc2ccc(C(=O)CC)cc2)c1OCCC[N+](C)(C)CC(=O)NCCCC.[Br-]` , state its measured MIC.
Result :: 64

Query :: Read off the recorded MIC for `C=CCc1cccc(Oc2ccc(C(=O)CC)cc2)c1OCCC[N+](C)(C)CC(=O)N(CC)CC.[Br-]`
Result :: 32

Query :: Supply recorded MIC for `C=CCc1cccc(Oc2ccc(C(=O)CC)cc2)c1OCCCC[N+](C)(C)CC(=O)NCCCCCC.[Br-]` here.
Result :: 32

Query :: Assign MIC to the following record: `C=CCc1cccc(Oc2ccc(C(=O)CC)cc2)c1OCCCC[N+](C)(C)CC(=O)NCCCC.[Br-]`
Result :: 128

Query :: Indicate the recorded MIC value for this compound: `C=CCc1cccc(Oc2ccc(C(=O)CC)cc2)c1OCC[N+](C)(C)CC(=O)NCCCCCC.[Br-]`
Result :: 64

Query :: Consider the compound `C=CCc1cccc(Oc2ccc(C(=O)CC)cc2)c1OCCC[N+](C)(C)CC(=O)N1CCOCC1.[Br-]` . State its measured MIC.
Result :: 64

Query :: # return recorded MIC for entry `C=CCc1cccc(Oc2ccc(C(=O)CC)cc2)c1OCCC[N+](C)(C)CC(=O)N(CCCC)CCCC.[Br-]`
Result :: 128

Query :: Provide measured MIC value, entry: `C=CCc1cccc(Oc2ccc(C(=O)CC)cc2)c1OCCCC[N+](C)(C)CC(=O)NCC.[Br-]`
Result :: 64

Query :: State its MIC: `C[C@@H](O)[C@H]1C(=O)N2C(C(=O)O)=C(S[C@@H]3CN[C@H](C(=O)N(C)C)C3)[C@H](C)[C@H]12`
Result :: 0.125

Query :: Hello, please tell me recorded MIC for this one: `C=CCc1cccc(Oc2ccc(C(=O)CC)cc2)c1OCCC[N+](C)(C)CC(=O)N1CCCC1.[Br-]`
Result :: 64

Query :: In one line, give reported MIC of the entry `C=CCc1cccc(Oc2ccc(C(=O)CC)cc2)c1OCCC[N+](C)(C)CC(=O)N(CCC)CCC.[Br-]` .
Result :: 128

----------
Assay: Binding affinity to methicillin-resistant Staphylococcus aureus 15 phosphatidylglycerol assessed as dissociation constant by ITC method
PROPERTY LABEL: Kd
Could you write the number and then its unit?

Query :: Identify the reported Kd for the following entry. `C=CCc1cccc(Oc2ccc(C(=O)CC)cc2)c1OCCC[N+](C)(C)CC(=O)NCCCCCC.[Br-]`
Result :: 3.43 µM

----------
Tested on: Micrococcus luteus
Assay: Antibacterial activity against Micrococcus luteus assessed as inhibition of bacterial growth incubated for 16 to 20 hrs by CLSI based microdilution method
Format: functional
Conditions: time 16-20 hrs
PROPERTY LABEL: MIC
Units required after the number.

// below: answered compounds
[[record]]
input_smiles = "C=CCc1cccc(Oc2ccc(C(=O)CC)cc2)c1OCC[N+](C)(C)CC(=O)NCCC.[Br-]"
result = "64 µg/mL"

[[record]]
input_smiles = "C=CCc1cccc(Oc2ccc(C(=O)CC)cc2)c1OCC[N+](C)(C)CC(=O)N(CC)CC.[Br-]"
result = "32 µg/mL"

[[record]]
input_smiles = "C=CCc1cccc(Oc2ccc(C(=O)CC)cc2)c1OCCCC[N+](C)(C)CC(=O)NCCCCC.[Br-]"
result = "16 µg/mL"


Query :: Give MIC only, for `C=CCc1cccc(Oc2ccc(C(=O)CC)cc2)c1OCC[N+](C)(C)CC(=O)NCC.[Br-]` , using Micrococcus luteus data.
Result :: 32 µg/mL

Query :: Please tell me the measured MIC for `C=CCc1cccc(Oc2ccc(C(=O)CC)cc2)c1OCC[N+](C)(C)CC(=O)NCCCCCC.[Br-]` ; system: Micrococcus luteus.
Result :: 4 µg/mL

Query :: Report measured MIC on Micrococcus luteus; entry: `Br.C=CCc1cccc(Oc2ccc(C(=O)CC)cc2)c1OCCCSC(=N)N`
Result :: 32 µg/mL

Query :: State recorded MIC with Micrococcus luteus, entry `C=CCc1cccc(Oc2ccc(C(=O)CC)cc2)c1OCCC[N+](C)(C)CC(=O)NCCC.[Br-]` , no comment.
Result :: 64 µg/mL

Query :: Tell me its MIC on Micrococcus luteus: `C=CCc1cccc(Oc2ccc(C(=O)CC)cc2)c1OCC[N+](C)(C)CC(=O)N1CCOCC1.[Br-]`
Result :: 16 µg/mL

Query :: State the measured MIC (Micrococcus luteus) of `C=CCc1cccc(Oc2ccc(C(=O)CC)cc2)c1OCC[N+](C)(C)CC(=O)N(CCC)CCC.[Br-]`
Result :: 16 µg/mL
